System under test: feline FcRn complex (FcRn-α subunit and β-microglobulin) (feline)
Assay details: SPR (Biacore), FcRn on SA chip, pH 7.4
Metric name: pKd
Schema: pKd number; meaning minus log10 of the concentration expressed in molar units.

feline IgG1a mutant ID No. 316: S428M, A431K (antibody, part only; not given: Variable domains, not shown: another chain or arm of the molecule) constant: ASTTAPSVFPLAPSCGTTSGATVALACLVLGYFPEPVTVSWNSGALTSGVHTFPAVLQASGLYSLSSMVTVPSSRWLSDTFTCNVAHPPSNTKVDKTVRKTDHPPGPKPCDCPKCPPPEMLGGPSIFIFPPKPKDTLSISRTPEVTCLVVDLGPDDSDVQITWFVDNTQVYTAKTSPREEQFNSTYRVVSVLPILHQDWLKGKEFKCKVNSKSLPSPIERTISKAKGQPHEPQVYVLPPAQEELSRNKVSVTCLIKSFHPPDIAVEWEITGQPEPENNYRTTPPQLDSDGTYFVYSKLSVDRSHWQRGNTYTCSVMHEKLHSHHTQKSLTQSPGK; 5.62

The value of pKd measured for the binder feline IgG1a mutant ID No. 281: S252Y, D312P, L314K, S434Y (antibody, part only; not given: Variable domains, not shown: another chain or arm of the molecule) constant: ASTTAPSVFPLAPSCGTTSGATVALACLVLGYFPEPVTVSWNSGALTSGVHTFPAVLQASGLYSLSSMVTVPSSRWLSDTFTCNVAHPPSNTKVDKTVRKTDHPPGPKPCDCPKCPPPEMLGGPSIFIFPPKPKDTLYISRTPEVTCLVVDLGPDDSDVQITWFVDNTQVYTAKTSPREEQFNSTYRVVSVLPILHQPWKKGKEFKCKVNSKSLPSPIERTISKAKGQPHEPQVYVLPPAQEELSRNKVSVTCLIKSFHPPDIAVEWEITGQPEPENNYRTTPPQLDSDGTYFVYSKLSVDRSHWQRGNTYTCSVSHEALHYHHTQKSLTQSPGK turned out to be 5.80
